Quick reference for pIC50 among some molecules
- ASSAY_TARGET: maltase (porcine intestinal mucosa)
- ASSAY_OVERVIEW: Glucosidase inhibitory activity, maltase (maltose as substrate)
- EXPERIMENTAL_CONDITIONS: read-out: IC50 (maltase), 50% inhibition concentration, pH 6.8, 37° C., 10 minutes
- Description: The method of assaying the glucosidase inhibitory activity. […]
pIC50: −log10 of the molar value.

MOLECULE | ASSAY_TARGET | pIC50
OC[C@H]1C[C@@H](N[C@H]2C[C@](O)(CO)[C@@H](O)[C@H](O)[C@H]2O)[C@H](O)[C@@H](O)[C@@H]1O [Example 18, (1R,2S) isomer] | maltase (porcine intestinal mucosa) | 7.36
CO[C@H]1O[C@H](CO)[C@@H](N[C@H]2C[C@H](CO)[C@@H](O)[C@H](O)[C@H]2O)[C@H](O)[C@H]1O [Example 3, Glucopyranoside isomer] | maltase (porcine intestinal mucosa) | 5.36
OC[C@H]1C[C@H](N[C@@H]2C[C@H](CO)[C@@H](O)[C@H](O)[C@H]2O)[C@H](O)[C@@H](O)[C@@H]1O [Example 17, (1R,2S) isomer] | maltase (porcine intestinal mucosa) | 5.66
